assayTarget: KSP (HuEg5) (Homo sapiens)
Sequence (P52732 with tags, fused parts or gaps): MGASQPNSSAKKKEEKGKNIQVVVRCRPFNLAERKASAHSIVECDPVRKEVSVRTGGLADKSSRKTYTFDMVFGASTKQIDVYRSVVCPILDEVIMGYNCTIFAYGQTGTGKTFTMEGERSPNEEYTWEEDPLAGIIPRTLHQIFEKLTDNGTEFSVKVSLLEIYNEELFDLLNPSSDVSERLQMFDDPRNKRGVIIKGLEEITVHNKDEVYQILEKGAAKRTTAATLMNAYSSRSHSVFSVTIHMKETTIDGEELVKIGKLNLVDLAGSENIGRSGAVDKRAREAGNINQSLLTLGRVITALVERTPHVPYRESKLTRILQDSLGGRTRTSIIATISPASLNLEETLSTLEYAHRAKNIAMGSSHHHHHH
pIC50: −log10 of the molar value.
measurementLabel: pIC50

[I] CCOC(=O)C1=C(C)NC(=S)NC1c1cccc(O)c1 (centres unmarked) [Monastrol]
[II] CCCCN1C(=O)C2Cc3c([nH]c4ccccc34)C(c3cccc(O)c3)N2C1=O (centres unmarked) [HR22C16]
Hi there, can you help? I need to know whether I or II has lower measured pIC50. Choose, then provide that item's label. I
(I: 4.35, II: 5.82)
